Origin of values: the supplement of paper PMC5412046

# Tested on: SB.msgc-1
# Assay explanation: area under the dose-response curve of % viability (trapezoidal, 11 doses) (% viability x log10 concentration); higher = less cytotoxic
# Condition set: SB.msgc-1 (sporadic gastric cancer)
Counter-ions that a name gives are not always drawn.
Measured parameter: area under the dose-response curve
Give bare numbers.

Solved entries:
Molecule	area under the dose-response curve
C[C@@H](c1ncncc1F)[C@](O)(Cn1cncn1)c1ccc(F)cc1F [Voriconazole] (top concentration 46.0829 µM)	523
ClC1=CC\2=C(OC3=C(C=CC=C3)\N=C2N4CCNCC4)C=C1 [Amoxapine] (top concentration 46.0829 µM)	461
CCCCCCCCCC(=O)N[C@@H](Cc1c[nH]c2ccccc12)C(=O)N[C@H](CC(N)=O)C(=O)N[C@@H](CC(=O)O)C(=O)N[C@@H]1C(=O)NCC(=O)N[C@@H](CCCN)C(=O)N[C@@H](CC(=O)O)C(=O)N[C@H](C)C(=O)N[C@@H](CC(=O)O)C(=O)NCC(=O)N[C@H](CO)C(=O)N[C@@H]([C@@H](C)CC(=O)O)C(=O)N[C@@H](CC(=O)c2ccccc2N)C(=O)O[C@@H]1C [Daptomycin] (top concentration 46.0829 µM)	531

Record area under the dose-response curve for all entries; do not skip any.
1. CCN1CCN(Cc2ccc(-c3cc4c(N[C@H](C)c5ccccc5)ncnc4[nH]3)cc2)CC1 [AEE-788] (top concentration 46.0829 µM)
2. Clc1ccccc1CN1CCc2sccc2C1 [Ticlopidine hydrochloride] (top concentration 46.0829 µM)
3. CCOC(=O)Nc1ccc(NCc2ccc(F)cc2)cc1N [Retigabine] (top concentration 46.0829 µM)
4. Cc1nc2ccc(CN(C)c3ccc(C(=O)N[C@@H](CCC(=O)O)C(=O)O)s3)cc2c(=O)[nH]1 [Raltitrexed] (top concentration 46.0829 µM)
5. C1COC(NC(C2CC2)C2CC2)=N1 [Rilmenidine] (top concentration 46.0829 µM)
6. C[C@]1(CO)CN(c2cc(C(=O)Nc3ccc4c(c3)-c3c(c(C(N)=O)nn3-c3ccc(F)cc3)CC4)c(Cl)cn2)C[C@@]1(C)CO [PF-184] (top concentration 46.0829 µM)

stdout:
[189, 552, 524, 437, 490, 496]

Record area under the dose-response curve for all entries; do not skip any.
1. Clc1ccc(C(Cn2ccnc2)OCc2ccc(Sc3ccccc3)cc2)c(Cl)c1 (stereo unspecified) [Fenticonazole nitrate] (top concentration 46.0829 µM)
2. CCCCCCCCOc1ccccc1C(=O)Nc1ccc(C(=O)OCC[N+](C)(CC)CC)cc1 [Octylonium bromide] (top concentration 46.0829 µM)

stdout:
[493, 484]

---

# Tested on: SB.msgc-1
# Assay explanation: viability at highest tested concentration (MAXR) relative to DMSO; higher = less cytotoxic
# Condition set: SB.msgc-1 (sporadic gastric cancer)
Label rule met when viability < 80%; otherwise rule not met.

Molecule	Label class
N#CC1(c2cccc(C(=O)Nc3cc(Oc4ccc5nc(NC(=O)C6CC6)sc5n4)ccc3F)c2Cl)CC1 [Takeda-6d] (top concentration 46.0829 µM)	rule met
COc1cccc(Nc2c(C(N)=O)cnc3c(C)cc([S+](=O)([O-])c4cccc(C(=O)N(C)C)c4)cc23)c1 (top concentration 23.0415 µM)	rule not met
COc1ccccc1OCC(O)COC(N)=O (configuration not stated) [Methocarbamol] (top concentration 46.0829 µM)	rule not met
NC(=O)c1cccc2nc(-c3ccc([C@H]4CCCN4)cc3F)[nH]c12 (top concentration 46.0829 µM)	rule not met
ClC1=CC=C2N/C3=N/C(=O)CN3CC2=C1Cl [anagrelide] (top concentration 46.0829 µM)	rule not met

stdin: Problem: For the molecule CC1=C(C=CC=C1)N2\C(=N/C3=C(C(=CC=C3)C)C2=O)C[N]4N=CC5=C4N=CN=C5N [PIK-293] (top concentration 46.0829 µM) , is viability under 80%?
stdout: rule met

stdin: Follow-up entry: NC(=O)OCC(COC(N)=O)c1ccccc1 [Felbamate] (top concentration 46.0829 µM)
stdout: rule not met
